Molecular target: Melanocyte-stimulating hormone receptor (Homo sapiens, UniProt Q01726)
Sequence (Q01726 whole entry): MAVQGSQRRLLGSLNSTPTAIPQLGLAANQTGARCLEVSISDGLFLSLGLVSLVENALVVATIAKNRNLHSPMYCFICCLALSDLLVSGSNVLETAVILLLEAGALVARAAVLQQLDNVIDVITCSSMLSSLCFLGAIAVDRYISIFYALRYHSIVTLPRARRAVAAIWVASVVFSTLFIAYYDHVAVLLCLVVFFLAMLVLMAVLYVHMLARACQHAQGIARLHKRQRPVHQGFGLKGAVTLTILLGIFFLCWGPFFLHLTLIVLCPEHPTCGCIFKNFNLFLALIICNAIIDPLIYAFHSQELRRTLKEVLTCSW
pKi: −log10 of the molar value.
compounds and their reported pKi
reported-property: pKi

- entry-smiles: "C[C@H]1NC(=O)[C@H](Cc2c[nH]c3ccccc23)NC(=O)[C@H](CCCNC(=N)N)NC(=O)[C@@H](Cc2ccccc2)NC(=O)[C@H](Cc2c[nH]cn2)NC(=O)c2cc([N+](=O)[O-])ccc2SC[C@@H](C(N)=O)NC1=O"
  number: 7.10
- entry-smiles: "NC(=O)[C@@H]1CSc2ccc([N+](=O)[O-])cc2C(=O)N[C@@H](Cc2cnc[nH]2)C(=O)N[C@H](Cc2ccccc2)C(=O)N[C@@H](CCCN=C(N)N)C(=O)N[C@@H](Cc2c[nH]c3ccccc23)C(=O)N1"
  number: 6.90
- entry-smiles: "N=C(N)NCCC[C@@H]1NC(=O)[C@@H](Cc2ccccc2)NC(=O)[C@H](Cc2c[nH]cn2)NC(=O)c2cc(N)ccc2SC[C@@H](C(N)=O)NC(=O)[C@H](Cc2c[nH]c3ccccc23)NC1=O"
  number: 6.57
- entry-smiles: "C[C@H]1NC(=O)c2cc(N)ccc2SC[C@@H](C(N)=O)NC(=O)[C@H](Cc2c[nH]c3ccccc23)NC(=O)[C@H](CCCNC(=N)N)NC(=O)[C@@H](Cc2ccccc2)NC(=O)[C@H](Cc2c[nH]cn2)NC1=O"
  number: 8.30
- entry-smiles: "C[C@@H]1NC(=O)c2cc(-c3cn([C@@H]4O[C@H](CO)[C@@H](O)[C@H](O)[C@H]4O)nn3)ccc2SC[C@@H](C(N)=O)NC(=O)[C@H](Cc2c[nH]c3ccccc23)NC(=O)[C@H](CCCNC(=N)N)NC(=O)[C@@H](Cc2ccccc2)NC(=O)[C@H](Cc2c[nH]cn2)NC1=O"
  number: 8.60

###

Target: Melanocyte-stimulating hormone receptor (Homo sapiens)
Assay: Agonist activity at human MC1R stably expressed in human Flp-In-293 cells assessed as cAMP accumulation incubated for 45 mins in presence of IBMX by Lance Ultra cAMP assay
Format: functional, cell-based
Conditions: read-out: pEC50 (converted)

- entry-smiles: "N=C(N)NCCC[C@@H]1NC(=O)[C@@H](Cc2ccccc2)NC(=O)[C@H](Cc2c[nH]cn2)NC(=O)c2cc(N)ccc2SC[C@@H](C(N)=O)NC(=O)[C@H](Cc2c[nH]c3ccccc23)NC1=O"
  EC50 [nM]: 50.1
- entry-smiles: "C[C@H]1NC(=O)[C@H](Cc2c[nH]c3ccccc23)NC(=O)[C@H](CCCNC(=N)N)NC(=O)[C@@H](Cc2ccccc2)NC(=O)[C@H](Cc2c[nH]cn2)NC(=O)c2cc([N+](=O)[O-])ccc2SC[C@@H](C(N)=O)NC1=O"
  EC50 [nM]: 33.9
- entry-smiles: "C#Cc1ccc2c(c1)C(=O)N[C@H](C)C(=O)N[C@@H](Cc1c[nH]cn1)C(=O)N[C@H](Cc1ccccc1)C(=O)N[C@@H](CCCNC(=N)N)C(=O)N[C@@H](Cc1c[nH]c3ccccc13)C(=O)N[C@H](C(N)=O)CS2"
  EC50 [nM]: 2.24
- entry-smiles: "C[C@@H]1NC(=O)c2cc(-c3cn([C@@H]4O[C@H](CO)[C@@H](O)[C@H](O)[C@H]4O)nn3)ccc2SC[C@@H](C(N)=O)NC(=O)[C@H](Cc2c[nH]c3ccccc23)NC(=O)[C@H](CCCNC(=N)N)NC(=O)[C@@H](Cc2ccccc2)NC(=O)[C@H](Cc2c[nH]cn2)NC1=O"
  EC50 [nM]: 16.6
- entry-smiles: "C[C@@H]1NC(=O)c2cc([N+](=O)[O-])ccc2SC[C@@H](C(N)=O)NC(=O)[C@H](Cc2c[nH]c3ccccc23)NC(=O)[C@H](CCCNC(=N)N)NC(=O)[C@@H](Cc2ccccc2)NC(=O)[C@H](Cc2c[nH]cn2)NC1=O"
  EC50 [nM]: 63.1
- entry-smiles: "C[C@H]1NC(=O)c2cc(N)ccc2SC[C@@H](C(N)=O)NC(=O)[C@H](Cc2c[nH]c3ccccc23)NC(=O)[C@H](CCCNC(=N)N)NC(=O)[C@@H](Cc2ccccc2)NC(=O)[C@H](Cc2c[nH]cn2)NC1=O"
  EC50 [nM]: 10
- entry-smiles: "C[C@H]1NC(=O)c2cc(C(=N)N)ccc2SC[C@@H](C(N)=O)NC(=O)[C@H](Cc2c[nH]c3ccccc23)NC(=O)[C@H](CCCNC(=N)N)NC(=O)[C@@H](Cc2ccccc2)NC(=O)[C@H](Cc2c[nH]cn2)NC1=O"
  EC50 [nM]: 4.79
- entry-smiles: "NC(=O)[C@@H]1CSc2ccc([N+](=O)[O-])cc2C(=O)N[C@@H](Cc2cnc[nH]2)C(=O)N[C@H](Cc2ccccc2)C(=O)N[C@@H](CCCN=C(N)N)C(=O)N[C@@H](Cc2c[nH]c3ccccc23)C(=O)N1"
  EC50 [nM]: 1260
- entry-smiles: "C#Cc1ccc2c(c1)C(=O)N[C@@H](Cc1c[nH]cn1)C(=O)N[C@H](Cc1ccccc1)C(=O)N[C@@H](CCCNC(=N)N)C(=O)N[C@@H](Cc1c[nH]c3ccccc13)C(=O)N[C@H](C(N)=O)CS2"
  EC50 [nM]: 34.7
